assay_name: activity coefficient (dimensionless); of the first substance listed, at infinite dilution; xn = mol fraction of the nth substance listed
condition_set: 358.15 K; Liquid; Chromatography; x1 = 0
experimental_endpoint: activity coefficient

Entry C=CCCCCCC [oct-1-ene] + CCCCn1cc[n+](C)c1.N#CN=C=[N-] has what activity coefficient? 56.2

Then this molecule: CCOCC [diethyl ether] + CCCCn1cc[n+](C)c1.N#CN=C=[N-] 7.74

Next record, please: COC(C)=O [methyl ethanoate] + CCCCn1cc[n+](C)c1.N#CN=C=[N-] 1.99

Query CCCOCCC [dipropyl ether] + CCCCn1cc[n+](C)c1.N#CN=C=[N-] next 20.5

Same question for C=CCCC [1-pentene] + CCCCn1cc[n+](C)c1.N#CN=C=[N-] please. 17.3

// next record C1CCCCC1 [cyclohexane] + CCCCn1cc[n+](C)c1.N#CN=C=[N-] 23.1

[a] CCCCCCCCC [nonane] + CCCCn1cc[n+](C)c1.N#CN=C=[N-]
[b] C=C(C)c1ccccc1 [(1-methylethenyl)benzene] + CCCCn1cc[n+](C)c1.N#CN=C=[N-]
Form: Entry with minimum activity coefficient (choose one): a / b Select an item and report its label. b
(b: 4.26, a: 162)
